Assay notes: folding stability dG unfold from trypsin proteolysis; higher = more stable
Reported metric: folding stability dG unfold (kcal/mol)
Use kcal/mol as the unit, but write only the number.

{"Entry sequence": "SAGGKKVFTLDELKKLAEELNIEKIEVKEDEEGIYTFTFTDLAKKTGKEVTIKIVRNKNGELLVEIEPSAGG [r13_163_TrROS_Hall]", "folding stability dG unfold / kcal/mol": 1.78}
{"Entry sequence": "SAGGSAETYPVTVVVPLPPGGRELPVEELEDLVRETLANVPDLPDVKVEVTLLEPEGRALVRVEFPSAGGSA [r15_1029_TrMRF]", "folding stability dG unfold / kcal/mol": 0.0434}
{"Entry sequence": "SAGGSAGGSAGGSMSVSSVGSSSGAGMIVKTTYFPGSGGTTVVLIEPASGVVLATTPVPGSAGGSAGGSAGG [r7_154_JUSTAS]", "folding stability dG unfold / kcal/mol": 0.493}
{"Entry sequence": "SAKKVKIEIKNKETNKIYTIEIKEDGKVTIKNKETGEEIEVEINGKKITFPPGASIDEIIKKLEEALKKSAG [r14_561_TrROS_Hall]", "folding stability dG unfold / kcal/mol": 1.72}
{"Entry sequence": "SAGGPEVEAERFGDTVLVRITLLDPETGEPYEFLAIATRRPDGTVTVTIIHPDGRPSTIPLPLLPLASAGGS [r16_154_TrMRF]", "folding stability dG unfold / kcal/mol": 2.63}
{"Entry sequence": "SAGGSAGGSAGGIWIPGDDIKEALKKMPPDVTKHIFNPDEGRWIMIKVNDNKIDIEPWPSAGGSAGGSAGGS [r10_137_TrROS]", "folding stability dG unfold / kcal/mol": -0.392}
{"Entry sequence": "SAGGSAGGSMKTALLDDGKTIPLPEEELPPDAGVEEVAKKIPPEAKKLTVKEPDGSTKTVPLASAGGSAGGS [r20_161_JUSTAS]", "folding stability dG unfold / kcal/mol": -0.0521}
{"Entry sequence": "SAGGSAGGSAMITIKVSPDVPVPSNTPITLPNGKKVKATVTPVPSPEDGTPVLKITLDPNLISAGGSAGGSA [r18_476_JUSTAS]", "folding stability dG unfold / kcal/mol": -0.934}

Q) Can you share its folding stability dG unfold? I mean this sequence: SAGGSAGGPPDIVTLPIWIGGLKVEIMVYPDGSVTIMFRFPDWYYMITFPLKNGKIEIEWVPLKSAGGSAGG [r6_555_TrROS]
A) 3.16
